Numbers sourced from PubChem BioAssay AID1918930.

# System: 233499-124-R-J3-PDC complex spheroid viability, % test/control;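 also: spheroids exposed to agents for one week before readout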
# Protocol Details: Anticancer human tumor 233499-124-R-J3-PDC patient-derived colon adenocarcinoma cell line growth inhibition; active = viability on the fitted dose curve at most 10% of control; inactive = the rest
# Measurement Parameters: second compound 3.16 µM; first compound 3 µM
I would appreciate it if you answered using one of these outcomes: label 1 for active, label 0 for inactive

>  <Molecule>
COc1cc(C2c3cc4c(cc3C(OC3OC5COC(C)OC5C(O)C3O)C3COC(=O)C23)OCO4)cc(OC)c1O (stereo not drawn) + NC1CCC(NC2CC2c2ccccc2)CC1

>  <Category Label>
label 0

$$$$
>  <Molecule>
CCN(c1cc(-c2ccc(CN3CCOCC3)cc2)cc(C(=O)NCc2c(C)cc(C)[nH]c2=O)c1C)C1CCOCC1 + NC1CC1c1ccc(-c2cccc(O)c2)cc1

>  <Category Label>
label 0

$$$$

Query molecule follows.
Prompt: What call does the record list for Nc1ccccc1NC(=O)c1ccc(CNC(=O)OCc2cccnc2)cc1 + NC1CC1c1ccc(-c2cccc(O)c2)cc1 ?
Response: label 1
